Numbers sourced from ChEMBL document CHEMBL1134554.

experiment: Pharmacokinetic data in Beagle dogs at 0.5 mg/kg intravenous dose.; type: ADME, organism-based, Canis lupus familiaris; set-up: dose 0.5 mg/kg, route intravenous; details: dog, in vivo
measured.metric: AUC

• CC(C)C[C@H]1C(=O)N[C@H](C(=O)NCC(=O)N2CCOCC2)CCCCNC(=O)OCCC[C@@H]1C(=O)NO = 2080 ng·h/mL

###

biological target: Disintegrin and metalloproteinase domain-containing protein 17 (Homo sapiens)
Sequence (P78536 whole entry, the tested form may be a part): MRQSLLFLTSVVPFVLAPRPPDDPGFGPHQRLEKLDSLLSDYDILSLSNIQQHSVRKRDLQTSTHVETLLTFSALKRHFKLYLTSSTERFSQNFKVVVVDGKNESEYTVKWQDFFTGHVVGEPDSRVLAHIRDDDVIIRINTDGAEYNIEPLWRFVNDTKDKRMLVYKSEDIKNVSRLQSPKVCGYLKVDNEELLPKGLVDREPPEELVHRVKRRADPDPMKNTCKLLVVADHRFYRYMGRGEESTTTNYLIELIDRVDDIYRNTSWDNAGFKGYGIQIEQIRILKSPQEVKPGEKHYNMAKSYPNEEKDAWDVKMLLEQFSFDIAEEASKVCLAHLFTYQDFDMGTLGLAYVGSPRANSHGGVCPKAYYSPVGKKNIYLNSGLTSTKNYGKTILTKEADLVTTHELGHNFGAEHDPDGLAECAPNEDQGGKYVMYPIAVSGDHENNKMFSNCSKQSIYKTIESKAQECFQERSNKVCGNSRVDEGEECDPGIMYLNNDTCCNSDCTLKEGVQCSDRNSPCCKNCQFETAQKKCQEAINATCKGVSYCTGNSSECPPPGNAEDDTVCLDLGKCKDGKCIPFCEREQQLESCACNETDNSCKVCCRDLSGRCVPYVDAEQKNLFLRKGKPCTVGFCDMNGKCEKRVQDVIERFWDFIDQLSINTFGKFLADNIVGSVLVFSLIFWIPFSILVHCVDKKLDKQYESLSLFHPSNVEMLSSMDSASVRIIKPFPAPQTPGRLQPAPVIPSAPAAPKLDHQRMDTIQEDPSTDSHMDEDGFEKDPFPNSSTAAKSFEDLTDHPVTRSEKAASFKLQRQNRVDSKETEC
IC50 under 0.5 µM gets y, anything at or over 0.5 µM gets n.

- Cc1csc(NC(=O)[C@@H]2CCCCN(C)C(=O)OCCC[C@H](C(=O)NO)[C@@H](CC(C)C)C(=O)N2)n1: y
- CC(C)C[C@H]1C(=O)N[C@H](C(=O)NCCc2c[nH]c3ccc(F)cc23)CCCCNC(=O)OCCC[C@@H]1C(=O)NO: y
- CC(C)C[C@H]1C(=O)N[C@H](C(=O)NCC(F)(F)F)Cc2ccc(cc2)OCCC[C@@H]1C(=O)NO: n
- CC(C)C[C@H]1C(=O)N[C@H](C(=O)NCc2ccccc2)CCCCNC(=O)OCCC[C@@H]1C(=O)NO: n
- CCCCCC[C@H]1C(=O)N[C@H](C(=O)N[C@H](CCCCN)C(N)=O)Cc2ccc(cc2)OCCC[C@@H]1C(=O)NO: n
- CC(C)C[C@H]1C(=O)N[C@H](C(=O)NCC(=O)Nc2ccccc2)Cc2ccc(cc2)OCCC[C@@H]1C(=O)NO: y
- CC(C)C[C@H]1C(=O)N[C@H](C(=O)NCC(=O)N2CCC(C(=O)O)CC2)CCCCNC(=O)OCCC[C@@H]1C(=O)NO: y

###

pKi: −log10 of the molar value.
Recorded below: pKi, system Interstitial collagenase (Homo sapiens, UniProt P03956).
measured.metric: pKi

- CC(C)C[C@H]1C(=O)N[C@H](C(=O)NCC(=O)N2CCOCC2)CCCCNC(=O)OCCC[C@@H]1C(=O)NO: 7.89
- CNC(=O)[C@@H]1CCc2ccc(cc2)OCCC[C@H](C(=O)NO)[C@@H](CC(C)C)C(=O)N1: 8.28
- CNC(=O)CNC(=O)[C@@H]1Cc2ccc(cc2)OCCC[C@H](C(=O)NO)[C@@H](CC(C)C)C(=O)N1: 8.52

###

assay: Pharmacokinetic data in Beagle dogs at 0.74 mg/kg i.v. dose and 0.863 mg/kg p.o. dose; format: ADME, organism-based, Canis lupus familiaris; details: dog, in vivo, po
measured.metric: bioavailability (%)

• CNC(=O)CNC(=O)[C@@H]1Cc2ccc(cc2)OCCC[C@H](C(=O)NO)[C@@H](CC(C)C)C(=O)N1 = 11

###

molecular target: Disintegrin and metalloproteinase domain-containing protein 17 (Homo sapiens)
pIC50: −log10 of the molar value.
Parameter pIC50: see the listing below.
measured.metric: pIC50

* CC(C)C[C@H]1C(=O)N[C@H](C(=O)NCC(=O)NC(C)(C)C)Cc2ccc(cc2)OCCC[C@@H]1C(=O)NO | 6.70
* CNC(=O)[C@@H]1CCCCNCCC[C@H](C(=O)NO)[C@@H](CC(C)C)C(=O)N1 | 5.57
* Cc1ccc2[nH]cc(CCNC(=O)[C@@H]3CCCCNC(=O)OCCC[C@H](C(=O)NO)[C@@H](CC(C)C)C(=O)N3)c2c1 | 5.93
* CC(C)C[C@H]1C(=O)N[C@H](C(=O)NCc2cccnc2)CCCCNC(=O)OCCC[C@@H]1C(=O)NO | 6.30
* CCOC(=O)N1CCN(C(=O)CNC(=O)[C@@H]2CCCCN(C)C(=O)OCCC[C@H](C(=O)NO)[C@@H](CC(C)C)C(=O)N2)CC1 | 6.22
* CC(C)C[C@H]1C(=O)N[C@H](C(=O)NCc2ccccn2)CCCCNC(=O)OCCC[C@@H]1C(=O)NO | 6.15
* CNC(=O)[C@@H]1CCCCNC(=O)CC[C@H](C(=O)NO)[C@@H](CC(C)C)C(=O)N1 | 5.80
* CC(C)C[C@H]1C(=O)N[C@H](C(=O)NCCc2ccccn2)CCCCNC(=O)OCCC[C@@H]1C(=O)NO | 6.41
* CC(C)C[C@H]1C(=O)N[C@H](C(=O)N[C@H](C)C(=O)N2CCOCC2)CCCCNC(=O)OCCC[C@@H]1C(=O)NO | 6.82
* CC(C)C[C@H]1C(=O)N[C@H](C(=O)Nc2cccnc2)CCCCN(C)C(=O)OCCC[C@@H]1C(=O)NO | 6.30
* CC(C)C[C@H]1C(=O)N[C@H](C(=O)NCC(=O)N2CCCCC2)Cc2ccc(cc2)OCCC[C@@H]1C(=O)NO | 6.85
* CNC(=O)[C@@H]1CCCCN(S(=O)(=O)c2ccccc2)CCC[C@H](C(=O)NO)[C@@H](CC(C)C)C(=O)N1 | 5.89
* CCCCCC[C@H]1C(=O)N[C@H](C(=O)NC)Cc2ccc(cc2)OCCC[C@@H]1C(=O)NO | 5.60
* CC(C)C[C@H]1C(=O)N[C@H](C(=O)NCC(=O)N2CCN(c3ccccc3)CC2)CCCCNC(=O)OCCC[C@@H]1C(=O)NO | 7.15
* CC(C)C[C@H]1C(=O)N[C@H](C(=O)NCC(=O)N2CCCC(C)(C)C2)Cc2ccc(cc2)OCCC[C@@H]1C(=O)NO | 6.34
* CNC(=O)[C@@H](CCCCN)NC(=O)[C@@H]1CCCCNC(=O)OCCC[C@H](C(=O)NO)[C@@H](CC(C)C)C(=O)N1 | 6.16

###

assay: Pharmacokinetic data in Beagle dogs at 0.5 mg/kg intravenous dose.; type: ADME, organism-based, Canis lupus familiaris; set-up: dose 0.5 mg/kg, route intravenous; conditions: dog, in vivo
measured.metric: Tmax (h)

- CC(C)C[C@H]1C(=O)N[C@H](C(=O)NCC(=O)N2CCOCC2)CCCCNC(=O)OCCC[C@@H]1C(=O)NO: 1.25

###

pIC50: −log10 of the molar value.
Recorded below: pIC50, system Disintegrin and metalloproteinase domain-containing protein 17 (Homo sapiens).
measured.metric: pIC50

• CC(C)C[C@H]1C(=O)N[C@H](C(=O)NCC(=O)N2CCC(N3CCCCC3)CC2)CCCCNC(=O)OCCC[C@@H]1C(=O)NO = 6.74
• CC(C)C[C@H]1C(=O)N[C@H](C(=O)NCC(=O)N2CCC(O)CC2)CCCCNC(=O)OCCC[C@@H]1C(=O)NO = 6.55
• CNC(=O)[C@@H]1Cc2cn(c3ccccc23)CCCCO[C@H](C(=O)NO)[C@@H](CC(C)C)C(=O)N1 = 5.43
• CC(C)C[C@H]1C(=O)N[C@H](C(=O)Nc2ccc(N3CCOCC3)cc2)CCCCNC(=O)OCCC[C@@H]1C(=O)NO = 6.72
• Cc1csc(NC(=O)CNC(=O)[C@@H]2CCCCN(C)C(=O)OCCC[C@H](C(=O)NO)[C@@H](CC(C)C)C(=O)N2)n1 = 6.52
• CNC(=O)[C@@H]1Cc2ccc(cc2)OCCC[C@H](C(=O)NO)[C@@H](CC(C)C)C(=O)N1 = 5.92
• CNC(=O)[C@@H]1CCCCNC(=O)OCCC[C@H](C(=O)NO)[C@@H](CC(C)C)C(=O)N1 = 6.00

###

tested on: Mus musculus; assay: Compound at an oral dose of 30 mg/Kg was tested for the inhibition of LPS-stimulated TNF-alpha release in mouse; type: functional
measured.metric: inhibition in vivo at 30 mg/kg

* CCCCCC[C@H]1C(=O)N[C@H](C(=O)NCCCn2ccnc2)Cc2ccc(cc2)OCCC[C@@H]1C(=O)NO | 30%
* CCCCCC[C@H]1C(=O)N[C@H](C(=O)NCCc2ccc(S(N)(=O)=O)cc2)Cc2ccc(cc2)OCCC[C@@H]1C(=O)NO | 26%
* CCCCCC[C@H]1C(=O)N[C@H](C(=O)N[C@H](COC(C)(C)C)C(=O)NC)Cc2ccc(cc2)OCCC[C@@H]1C(=O)NO | 18%
* CCCCCC[C@H]1C(=O)N[C@H](C(=O)N[C@H](CCCCN)C(N)=O)Cc2ccc(cc2)OCCC[C@@H]1C(=O)NO | 36%
* CC(C)C[C@H]1C(=O)N[C@H](C(=O)NCC(=O)N(C)C)Cc2ccc(cc2)OCCC[C@@H]1C(=O)NO | 45%
* CC(C)C[C@H]1C(=O)N[C@H](C(=O)NCC(=O)NC2CCC2)Cc2ccc(cc2)OCCC[C@@H]1C(=O)NO | 31%
* CC(C)C[C@H]1C(=O)N[C@H](C(=O)NCC(=O)NC(C)(C)C)Cc2ccc(cc2)OCCC[C@@H]1C(=O)NO | 21%

###

Recorded below: Ki, system Stromelysin-1 (Homo sapiens, UniProt P08254).
measured.metric: Ki (nM)

- CNC(=O)[C@@H]1Cc2cn(c3ccccc23)CCCCO[C@H](C(=O)NO)[C@@H](CC(C)C)C(=O)N1: 2.88
- CNC(=O)CNC(=O)[C@@H]1Cc2ccc(cc2)OCCC[C@H](C(=O)NO)[C@@H](CC(C)C)C(=O)N1: 14
- CNC(=O)[C@@H]1CCc2ccc(cc2)OCCC[C@H](C(=O)NO)[C@@H](CC(C)C)C(=O)N1: 48
- CNC(=O)[C@@H]1CCCCN(C)C(=O)CO[C@H](C(=O)NO)[C@@H](CC(C)C)C(=O)N1: 3
